FYI, the data here is from patent US20060252798A1.

- System: DU 145 prostate cancer
- Assay Text: MTT cellular proliferation assay, DU 145
- Format: cell-based
- Measurement Conditions: Homo sapiens, DU-145, 0-50 μM, 72 h, 2 experiments
Recorded Endpoint: IC50 (µM)
Respond numerically; units are µM and should not be typed.

DU 145 prostate cancer / IC50 / COc1cccc2c1C(=O)c1c(O)c3c(c(O)c1C2=O)C[C@@](O)(C(=O)CO)C[C@@H]3O[C@H]1C[C@H](N)[C@H](O)[C@H](C)O1 : value? 0.09

What about CC(=O)N(O)CCCCCNC(=O)CCC(=O)N(O)CCCCCNC(=O)CCC(=O)N(O)CCCCCN ? 15.8
